Exercise: for every item that follows, state its recorded viscosity.
- experimentalProtocol: xn = mol fraction of the nth substance listed
- setupConditions: 303.2 K; 101.33 kPa; x2 = 0.7
Answers are plain numbers, in mPa·s.

CC(C)(C)O + O; 3.836
CC(C)(C)O + CCO; 1.548
CC(C)(C)O + c1ccccc1; 0.609

Batch request: viscosity for each of the following molecules.
1. CC(C)(C)O + CC(C)O
2. CC(C)(C)O + CCCCCC
3. CC(C)(C)O + CO

Reply:
1. 2.224
2. 0.361
3. 1.069

----------
- experimentalProtocol: xn = mol fraction of the nth substance listed
- setupConditions: 303.2 K; 101.33 kPa; x2 = 0.8
I would appreciate it if you labelled entries YES when viscosity is 0.8 mPa·s or higher, otherwise NO.

CC(C)(C)O + c1ccccc1; NO
CC(C)(C)O + CO; YES
CC(C)(C)O + CC(C)O; YES
CC(C)(C)O + O; YES
CC(C)(C)O + CCO; YES

Now take the following compound into account.
Task item: Could you tell me if the measured viscosity of CC(C)(C)O + CCCCCC reaches 0.8 mPa·s or more?
Reply: NO
